# experimental system: Luciferin 4-monooxygenase (Photinus pyralis)
# test summary: qHTS of Nrf2 Activators: Hit Validation in Secondary FLuc Assay; further: nearly all actives have a fitted effect of over 65% in size
# settings: firefly luciferase inhibition counter-screen, luminescence; series mostly up to 57.5 µM
The whole screen tested about 1,100 compounds, of which about 390 (35%) were called active. About 30% were inconclusive and are not listed. The call rests on the fitted dose curve; in most records, active means well fitted inhibition curve with a large enough effect; inconclusive means small, poorly fitted or top-dose-only effect; inactive means flat fitted curve, though single readings scatter. The list shows a part of the results.
Possible outcomes: yes (1) = active, no (0) = inactive

{"molecule": "CCc1c(C)sc(NC(=O)c2ccco2)c1C#N", "experimental system": "Luciferin 4-monooxygenase (Photinus pyralis)", "cat": "yes (1)"}
{"molecule": "O=C(NC1CCCCC1)N(c1ccccc1)c1nnc(-c2cccc([N+](=O)[O-])c2)s1", "experimental system": "Luciferin 4-monooxygenase (Photinus pyralis)", "cat": "yes (1)"}
{"molecule": "COc1ccc(N=Nc2ccc(O)c3ncccc23)cc1", "experimental system": "Luciferin 4-monooxygenase (Photinus pyralis)", "cat": "yes (1)"}
{"molecule": "NC(=O)c1cc2c3ccccc3ccn2c1-c1ccccc1", "experimental system": "Luciferin 4-monooxygenase (Photinus pyralis)", "cat": "yes (1)"}
{"molecule": "Cc1ccc(O)c(NC(=O)c2cccc(NC(=O)c3ccco3)c2)c1", "experimental system": "Luciferin 4-monooxygenase (Photinus pyralis)", "cat": "yes (1)"}
{"molecule": "CCc1nc(N)c(C#N)c(-c2ccco2)c1C", "experimental system": "Luciferin 4-monooxygenase (Photinus pyralis)", "cat": "no (0)"}
{"molecule": "COc1ccc(OC)c(NC(=O)C(C#N)=Cc2ccco2)c1", "experimental system": "Luciferin 4-monooxygenase (Photinus pyralis)", "cat": "yes (1)"}
{"molecule": "O=[N+]([O-])c1cc(Cl)cc2c1nc(NCCO)c1ccccc12", "experimental system": "Luciferin 4-monooxygenase (Photinus pyralis)", "cat": "no (0)"}
{"molecule": "CN1CCN(C(=O)CCN2C(=O)/C(=C/c3cccc(Br)c3)SC2=S)CC1", "experimental system": "Luciferin 4-monooxygenase (Photinus pyralis)", "cat": "no (0)"}
{"molecule": "Nc1c(C(=O)C2CC2)sc2nc(-c3cccs3)cc(C(F)(F)F)c12", "experimental system": "Luciferin 4-monooxygenase (Photinus pyralis)", "cat": "no (0)"}
{"molecule": "Fc1cccc(Cc2c(-c3ccco3)nc3c4ccccc4ccn23)c1", "experimental system": "Luciferin 4-monooxygenase (Photinus pyralis)", "cat": "yes (1)"}
{"molecule": "Cc1sc2ncnc(NCc3ccco3)c2c1C", "experimental system": "Luciferin 4-monooxygenase (Photinus pyralis)", "cat": "no (0)"}
{"molecule": "N/C(=N\\OC(=O)c1ccco1)c1cccc(Br)c1", "experimental system": "Luciferin 4-monooxygenase (Photinus pyralis)", "cat": "yes (1)"}
{"molecule": "O=C(N/N=C/C(Br)=C/c1ccccc1)c1ccc([N+](=O)[O-])cc1", "experimental system": "Luciferin 4-monooxygenase (Photinus pyralis)", "cat": "no (0)"}
{"molecule": "COc1ccc2[nH]c3c(NCc4ccco4)ncnc3c2c1", "experimental system": "Luciferin 4-monooxygenase (Photinus pyralis)", "cat": "yes (1)"}
{"molecule": "O=c1oc2ccccc2nc1/C=C(\\O)c1ccc(Br)cc1", "experimental system": "Luciferin 4-monooxygenase (Photinus pyralis)", "cat": "yes (1)"}
{"molecule": "COc1ccc(OC)c(/C=C2\\SC(=S)N(Cc3cccnc3)C2=O)c1", "experimental system": "Luciferin 4-monooxygenase (Photinus pyralis)", "cat": "no (0)"}
{"molecule": "O=[N+]([O-])c1ccc(Cl)cc1C=NNc1ccccn1", "experimental system": "Luciferin 4-monooxygenase (Photinus pyralis)", "cat": "no (0)"}
{"molecule": "O=C1N/C(=N\\N=C\\c2ccco2)SC1Cc1ccc(F)cc1 (configuration not stated)", "experimental system": "Luciferin 4-monooxygenase (Photinus pyralis)", "cat": "no (0)"}
{"molecule": "CNc1ccc(-c2nc(-c3ccco3)no2)cc1[N+](=O)[O-]", "experimental system": "Luciferin 4-monooxygenase (Photinus pyralis)", "cat": "yes (1)"}
{"molecule": "NC(=O)c1nc(Nc2ccccc2)sc1NC(=O)c1ccccc1Br", "experimental system": "Luciferin 4-monooxygenase (Photinus pyralis)", "cat": "no (0)"}
{"molecule": "CS(=O)(=O)Cc1nc2ccccc2oc1=O", "experimental system": "Luciferin 4-monooxygenase (Photinus pyralis)", "cat": "no (0)"}
{"molecule": "O=C(C=Cc1ccccc1Cl)c1ccccc1", "experimental system": "Luciferin 4-monooxygenase (Photinus pyralis)", "cat": "yes (1)"}
{"molecule": "Cc1ccc(/C=C/C(=O)Nc2ccc([N+](=O)[O-])c(NC(=O)/C=C/c3ccc(C)o3)c2)o1", "experimental system": "Luciferin 4-monooxygenase (Photinus pyralis)", "cat": "yes (1)"}
{"molecule": "Nc1c(C(=O)Nc2ccccc2Br)sc2nc(-c3cccs3)ccc12", "experimental system": "Luciferin 4-monooxygenase (Photinus pyralis)", "cat": "yes (1)"}
{"molecule": "CC(C)Nc1ccc(-c2nc(-c3ccco3)no2)cc1[N+](=O)[O-]", "experimental system": "Luciferin 4-monooxygenase (Photinus pyralis)", "cat": "yes (1)"}
{"molecule": "Brc1cc2c(cc1/C=N/Nc1nc3ccccc3s1)OCO2", "experimental system": "Luciferin 4-monooxygenase (Photinus pyralis)", "cat": "yes (1)"}
{"molecule": "CC(=NNc1ccc2ccccc2n1)c1ccccc1O", "experimental system": "Luciferin 4-monooxygenase (Photinus pyralis)", "cat": "yes (1)"}
{"molecule": "Cc1ccc([N+](=O)[O-])cc1NC(=S)NC(=O)c1ccco1", "experimental system": "Luciferin 4-monooxygenase (Photinus pyralis)", "cat": "no (0)"}
{"molecule": "CCc1cc2c(NCc3ccco3)ncnc2s1", "experimental system": "Luciferin 4-monooxygenase (Photinus pyralis)", "cat": "no (0)"}
{"molecule": "CSc1nnc(-c2ccco2)c(-c2ccco2)n1", "experimental system": "Luciferin 4-monooxygenase (Photinus pyralis)", "cat": "yes (1)"}
{"molecule": "O=[N+]([O-])c1cncc([N+](=O)[O-])c1Nc1cccc(O)c1", "experimental system": "Luciferin 4-monooxygenase (Photinus pyralis)", "cat": "no (0)"}
{"molecule": "O=c1oc2ccc(Cl)cc2nc1/C=C(\\O)c1ccco1", "experimental system": "Luciferin 4-monooxygenase (Photinus pyralis)", "cat": "no (0)"}
{"molecule": "Oc1ccccc1-c1csc(-c2ccccc2)n1", "experimental system": "Luciferin 4-monooxygenase (Photinus pyralis)", "cat": "yes (1)"}
{"molecule": "COCCN(C(=O)COC(=O)/C=C/c1ccccc1Cl)c1c(N)n(Cc2ccccc2)c(=O)[nH]c1=O", "experimental system": "Luciferin 4-monooxygenase (Photinus pyralis)", "cat": "no (0)"}
{"molecule": "CN1C2CCC1/C(=C\\c1ccc(F)cc1)C(=O)/C2=C/c1ccc(F)cc1", "experimental system": "Luciferin 4-monooxygenase (Photinus pyralis)", "cat": "no (0)"}
{"molecule": "COc1cc(/C=N/Nc2ccccn2)cc(OC)c1O", "experimental system": "Luciferin 4-monooxygenase (Photinus pyralis)", "cat": "yes (1)"}
{"molecule": "c1cncc(-c2noc(-c3cccc4ccccc34)n2)c1", "experimental system": "Luciferin 4-monooxygenase (Photinus pyralis)", "cat": "yes (1)"}
{"molecule": "Cc1cc(C)n(-c2nc3ccccc3c(=O)n2OCc2ccc(F)cc2)n1", "experimental system": "Luciferin 4-monooxygenase (Photinus pyralis)", "cat": "no (0)"}
{"molecule": "O=[N+]([O-])c1cc(Cl)cc(/C=N/Nc2nc3ccccc3s2)c1O", "experimental system": "Luciferin 4-monooxygenase (Photinus pyralis)", "cat": "yes (1)"}
{"molecule": "CCCc1cc(C(N)=O)c(NC(=O)c2ccco2)s1", "experimental system": "Luciferin 4-monooxygenase (Photinus pyralis)", "cat": "yes (1)"}
{"molecule": "Cc1c(CN(C)C)c2c(n1C)C(=O)c1ccc(Br)cc1-2", "experimental system": "Luciferin 4-monooxygenase (Photinus pyralis)", "cat": "no (0)"}
{"molecule": "COc1ccc(Br)cc1/C=N/Nc1ccccn1", "experimental system": "Luciferin 4-monooxygenase (Photinus pyralis)", "cat": "no (0)"}
{"molecule": "Clc1cccc(Cc2c(-c3ccco3)nc3c4ccccc4ccn23)c1", "experimental system": "Luciferin 4-monooxygenase (Photinus pyralis)", "cat": "yes (1)"}
{"molecule": "O=C(CSc1nnc(-c2ccco2)c(-c2ccco2)n1)c1ccccc1", "experimental system": "Luciferin 4-monooxygenase (Photinus pyralis)", "cat": "yes (1)"}
{"molecule": "COCCn1c(C(F)(F)F)ccc(NC(=O)c2ccccc2)c1=O", "experimental system": "Luciferin 4-monooxygenase (Photinus pyralis)", "cat": "yes (1)"}
{"molecule": "FC(F)(F)c1cc(-c2cccs2)nc(-n2cc(Br)cn2)n1", "experimental system": "Luciferin 4-monooxygenase (Photinus pyralis)", "cat": "no (0)"}
